Test: Volume of distribution at steady state in iv dosed rat
Type: ADME, organism-based
Conditions: in vivo, read-out: Vdss
assayEndpoint: Vd (L/kg)

chemicalStructure	value
O=C(O)c1ccc(-c2cc3cccnc3c(-c3ccc4nonc4c3)n2)cc1	0.37

----------
Experiment: AUC total in ferret at 3.42 umol/kg, ig
Assay type: ADME, organism-based, Mustela putorius furo
Conditions: plasma, po

chemicalStructure	AUC / µM·h
O=C(O)[C@H]1CC[C@H](c2cc3cccnc3c(-c3cccc(F)c3)n2)CC1	59.3
O=C(O)[C@H]1CC[C@H](c2cc3cccnc3c(-c3cccc(OC(F)(F)F)c3)n2)CC1	49.7

----------
Entries and their half-life
Assay: Half life in ferret at 3.42 umol/kg, ig
Type: ADME, organism-based, Mustela putorius furo
Details: in vivo, po

chemicalStructure	half-life [h]
O=C(O)[C@H]1CC[C@H](c2cc3cccnc3c(-c3cccc(OC(F)(F)F)c3)n2)CC1	1.87
O=C(O)[C@H]1CC[C@H](c2cc3cccnc3c(-c3cccc(F)c3)n2)CC1	3.2

Where do these numbers come from? They come from ChEMBL document CHEMBL2169833.
